Measured values drawn from patent US20260116991A1 for this set.

Molecular target: biotinylated labeled human GPC3 protein (produced in-house) (human, UniProt P51654 25-559, limits assumed, biotinylated (Dojindo, Cat. No. LK03); sites not stated)
Assay: ELISA, biotinylated human GPC3 protein
Listed binders paired with reported OD450 at 0.11 nM
readout: OD450 at 0.11 nM (OD450)

- binder: "hAb006LH2L1 (antibody, human IgG1, V domains shown, Humanized F3.38.7; VH H2 + VL L1; expressed as human IgG1) VH: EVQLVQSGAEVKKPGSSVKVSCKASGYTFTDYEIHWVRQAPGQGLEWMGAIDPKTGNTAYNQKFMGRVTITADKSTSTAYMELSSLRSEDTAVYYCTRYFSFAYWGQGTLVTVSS VL: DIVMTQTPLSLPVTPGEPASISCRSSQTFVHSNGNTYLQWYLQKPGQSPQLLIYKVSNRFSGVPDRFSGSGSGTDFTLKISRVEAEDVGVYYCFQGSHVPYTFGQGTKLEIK"
  unit tag: "OD450"
  reported: 1.83
- binder: "hAb007LH1L1a (antibody, human IgG1, V domains shown, Humanized F3.81.19; VH H1 + VL L1a; expressed as human IgG1) VH: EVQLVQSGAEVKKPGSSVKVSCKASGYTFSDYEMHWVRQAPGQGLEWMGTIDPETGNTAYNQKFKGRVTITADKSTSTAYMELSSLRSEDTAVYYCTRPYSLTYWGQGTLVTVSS VL: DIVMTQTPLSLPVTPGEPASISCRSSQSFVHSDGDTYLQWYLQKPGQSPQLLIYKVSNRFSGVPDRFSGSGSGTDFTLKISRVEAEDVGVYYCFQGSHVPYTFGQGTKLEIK"
  unit tag: "OD450"
  reported: 0.634
